Attribution: ChEMBL document CHEMBL1961873

ASSAY SYSTEM: Protein kinase C alpha type (Homo sapiens) (UniProt P17252);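 note: reported value is the mean inhibition, measured within the GSK PKIS screening panel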
STUDY CONDITIONS: at 1 µM
PARAMETER: inhibition (%)
Answers are plain numbers, in %.

In [3]: df
Out[3]:
                                item_smiles   parameter  unit_annotation   val
0          N#Cc1cccc(Nc2ncc(-c3ccccc3)o2)c1  inhibition                %  0.37
1  COc1c(C(N)=O)cc(-c2ccc(Cl)cc2)cc1-c1ccc(S(N)(=O)=O)cc1  inhibition                %   1.5
2  Cc1nnc(-c2cccc(-c3ccc(C(=O)NCC4CC4)cc3)c2)o1  inhibition                %  1.45
3  CS(=O)(=O)Nc1ccc(-c2ccc3c(NC(=O)C4CC4)n[nH]c3c2)cc1  inhibition                %  1.78
4  CS(=O)(=O)Nc1ccc(-c2cc(-c3ccccc3)cc(C(N)=O)c2N)cc1  inhibition                %  1.59

Okay, now this compound:
Query: Entry "COc1cccc(Nc2nccc(-c3cnn4ncccc34)n2)c1" needs its inhibition filled in; supply it.
Reply: 43.4
